- Test system: human keratinocytes
- EXPERIMENT: Inhibition of TPA-stimulated PGE₂ synthesis of human keratinocytes
- Format: cell-based
- EXPERIMENTAL_CONTEXT: Keratinocyte, TPA 100 ng/ml, 24 hours, read-out: IC₅₀, inhibition of TPA-stimulated PGE₂ synthesis
pIC50: −log10 of the molar value.

>  <COMPOUND>
CN(C/C=C/c1ccc(O)cc1)Cc1cccc2ccccc12 [compound of the invention]

>  <TARGET>
human keratinocytes

>  <pIC50>
5.52 to 6.00

$$$$

----------
- Test system: OF₁-mouse resident peritoneal macrophages
- EXPERIMENT: Zymosan-induced release of TXB₂, PGE₂ and LTC₄
- Type: cell-based
- EXPERIMENTAL_CONTEXT: Peritoneal macrophage, 2 hours, read-out: IC₅₀ for LTC₄
pIC50: −log10 of the molar value.
ENDPOINT: pIC50

>  <COMPOUND_STRUCTURE_STRING>
CN(C/C=C/c1ccc(O)cc1)Cc1cccc2ccccc12

>  <ENDPOINT>
pIC50

>  <REPORTED_RESULT>
5.10

$$$$
